ASSAY TARGET: human CB2 receptors (Homo sapiens)
Construct: expressed in transfected cells; host or cells: CHO cells
ASSAY INFO: cAMP assay
Type: cell-based
just bin them by EC50: LOW (below 0.02 µM), MEDIUM (0.02 µM to below 0.1 µM), HIGH (0.1 µM or more)

COMPOUND: NC(=O)CC1(NC(=O)c2ccc(N3CC(F)(C4CC4)C3)c(OCC3CC3)n2)COC1
LABEL VALUE: MEDIUM

Input line: Input `CC(C)C[C@H](NC(=O)c1ccc(OCC2CC2)c(-c2ccc(Cl)cc2)n1)C(N)=O` ; output its category
Output line: LOW

Input line: Input `COC(=O)C(C)(C)NC(=O)c1ccc(-c2ccc(Cl)cc2)c(SC)n1` ; output its category
Output line: HIGH

Input line: Input `NC(=O)[C@H](CC1CC1)NC(=O)c1ccc(OCC2CC2)c(OCC2CC2)n1` ; output its category
Output line: MEDIUM

Input line: Input `NC(=O)[C@@H]1CC(F)(F)CN1C(=O)c1ccc(N2CC(F)(C3CC3)C2)c(OCC2CC2)n1` ; output its category
Output line: LOW

Input line: Input `CC(C)(NC(=O)c1ccc(-c2ccccc2)c(OCC2CC2)n1)c1ncco1` ; output its category
Output line: MEDIUM

###

ASSAY TARGET: human CB2 receptors (Homo sapiens, UniProt P34972)
Construct: expressed in transfected cells; host or cells: CHO cells
Sequence (P34972 whole entry): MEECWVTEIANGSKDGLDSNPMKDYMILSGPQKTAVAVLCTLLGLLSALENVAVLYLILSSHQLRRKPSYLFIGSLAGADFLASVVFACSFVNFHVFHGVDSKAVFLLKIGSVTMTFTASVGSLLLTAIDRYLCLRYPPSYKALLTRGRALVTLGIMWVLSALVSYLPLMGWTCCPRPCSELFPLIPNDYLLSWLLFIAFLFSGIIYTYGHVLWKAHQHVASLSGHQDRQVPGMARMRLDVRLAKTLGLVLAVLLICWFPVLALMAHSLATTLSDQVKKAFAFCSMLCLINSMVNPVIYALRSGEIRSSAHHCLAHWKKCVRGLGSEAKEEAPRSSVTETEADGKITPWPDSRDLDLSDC
ASSAY INFO: cAMP assay
Type: cell-based
ASSAY CONDITIONS: CHO cells expressing human CB2 receptors; read-out: cAMP assay human CB2 EC50
Quick reference for pEC50 among some compounds
Expect pEC50 as a plain number equal to -log10 of the molar concentration.

See these solved cases before continuing.
COMPOUND: COC1CN(c2ccc(C(=O)NC3(CC(N)=O)COC3)nc2OCC2CC2)C1 [Example 22]
pEC50: 7.17
--
COMPOUND: COC1CN(c2ccc(C(=O)NCC3(O)CCCCC3)nc2OCC2CC2)C1 [Example 24]
pEC50: 5.89
--
COMPOUND: COC1CN(c2ccc(C(=O)NC(C)(C)Cc3nnc(-c4ccc(F)cc4)o3)nc2OCC2CC2)C1 [Example 21]
pEC50: 6.07
--
COMPOUND: CCC(CC)(NC(=O)c1ccc(N2CC(OC)C2)c(OCC2CC2)n1)C(=O)NC [Example 23]
pEC50: 7.33

Let us move to another entry and its pEC50.
Input line: Name the reported pEC50 value associated with the compound CCC(CC)(NC(=O)c1ccc(N2CC(OC)C2)c(OCC2CC2)n1)C(=O)NCCCF [Example 27]
Output line: 6.35

###

ASSAY TARGET: human CB2 receptors (Homo sapiens)
Construct: expressed in transfected cells; host or cells: CHO cells
ASSAY INFO: cAMP assay
Format: cell-based
Quick reference for pEC50 among some molecules
Expect pEC50 as a plain number equal to -log10 of the molar concentration.

COMPOUND: COC(=O)C(C)(C)NC(=O)c1ccc(-c2ccc(Cl)cc2)c(OCC2CC2)n1
pEC50: 7.32
--
COMPOUND: CC(C)C[C@H](NC(=O)c1ccc(N2CC(C)(F)C2)c(OCC2CC2)n1)C(N)=O
pEC50: 7.71
--
COMPOUND: CC(C)(NC(=O)c1ccc(-c2ccc(Cl)cc2)c(OCC2CC2)n1)c1ncco1
pEC50: 6.84
--
COMPOUND: COC1CN(c2ccc(C(=O)N[C@@H](CC(C)C)C(N)=O)nc2OCC2CC2)C1
pEC50: 7.66

Input line: Find pEC50 (human CB2 receptors (Homo sapiens)) for the entry `CCC(CC)(NC(=O)c1ccc(OCC2CC2)c(Cl)n1)C(=O)NC`
Output line: 6.10

Input line: Find pEC50 (human CB2 receptors (Homo sapiens)) for the entry `NC(=O)[C@@H]1CC(F)(F)CN1C(=O)c1ccc(OCC2CC2)c(-c2ccc(Cl)cc2)n1`
Output line: 7.74

Input line: Find pEC50 (human CB2 receptors (Homo sapiens)) for the entry `CCC(CC)(NC(=O)c1ccc(N2CC(F)(C3CC3)C2)c(OCC2CC2)n1)C(=O)NCCCF`
Output line: 6.17

Input line: Find pEC50 (human CB2 receptors (Homo sapiens)) for the entry `CCC(CC)(NC(=O)c1ccc(-c2ccccc2)c(OCC2CC2)n1)C(=O)NC`
Output line: 6.08

Input line: Find pEC50 (human CB2 receptors (Homo sapiens)) for the entry `CCC(CC)(NC(=O)c1ccc(N2CC(OC)C2)c(OCC2CC2)n1)C(=O)N1CC(F)C1`
Output line: 8.34

Input line: Find pEC50 (human CB2 receptors (Homo sapiens)) for the entry `CC1(F)CN(c2ccc(C(=O)N3CC(F)(F)C[C@H]3C(N)=O)nc2OCC2CC2)C1`
Output line: 7.94

Input line: Find pEC50 (human CB2 receptors (Homo sapiens)) for the entry `Cc1nc(C(C)(C)NC(=O)c2ccc(-c3ccc(Cl)cc3)c(OCC3CC3)n2)no1`
Output line: 6.64

Hey, just so you know, these numbers are from patent US20160376237A1.
